# TARGET ENTITY: DAOC hydroxylase (Streptomyces clavuligerus, UniProt P42220)
# EXPERIMENT NOTES: DAOC hydroxylase activity assay (DAC formation from DAOC, HPLC at 260 nm)
# Type: biochemical
# Design: The highly purified native enzyme (92% purity) has a molecular weight of 35,000 dalton; endogenous in cells; host or cells: Streptomyces clavuligerus cells (native producer; NRRL 18491 is named as preferred strain), enzyme purified from cell-free extract
# EXPERIMENTAL PARAMETERS: with Fe2+, α-ketoglutarate and O2
TEST READOUT: stimulation of catalytic activity

[[record]]
compound_structure = "Nc1ncnc2c1ncn2[C@@H]1O[C@H](COP(=O)(O)OP(=O)(O)OP(=O)(O)O)[C@@H](O)[C@H]1O"
target_entity = "DAOC hydroxylase (Streptomyces clavuligerus, UniProt P42220)"
result = "not"


====

# TARGET ENTITY: DAOC hydroxylase (Streptomyces clavuligerus)
# EXPERIMENT NOTES: Substrate specificity of purified DAOC hydroxylase
# Assay type: biochemical
# Set-up: The highly purified native enzyme (92% purity) has a molecular weight of 35,000 dalton; endogenous in cells; host or cells: Streptomyces clavuligerus cells (native producer; NRRL 18491 is named as preferred strain), enzyme purified from cell-free extract
# EXPERIMENTAL PARAMETERS: compound as substrate, relative to DAOC = 100
Quick reference: Relative Activity (%) of the listed items.
Just the number please, in %, no unit attached.

Need Relative Activity (%), item CC1=C(C(=O)O)N2C(=O)[C@@H](NC(=O)CCC[C@H](N)C(=O)O)[C@H]2SC1 [Iso-DAOC]
0.8

Further, for CC1=C(C(=O)O)N2C(=O)[C@@H](NC(=O)CCC[C@@H](N)C(=O)O)[C@H]2CC1 [Carba-DAOC, 1carba(1-dethia)deacetoxycephalosporin C] ?
1.9

And then C=C1CS[C@@H]2[C@H](NC(=O)CCC[C@@H](N)C(=O)O)C(=O)N2C1C(=O)O (stereo partly shown) [EMCC] , what is it?
36.5

Also CC1=C(C(=O)O)N2C(=O)[C@@H](NC(=O)CCC[C@@H](N)C(=O)O)[C@H]2SC1 [DAOC, deacetoxycephalosporin C] ?
100

====

# TARGET ENTITY: UniProtKB P42220
# Sequence (P42220 1-318): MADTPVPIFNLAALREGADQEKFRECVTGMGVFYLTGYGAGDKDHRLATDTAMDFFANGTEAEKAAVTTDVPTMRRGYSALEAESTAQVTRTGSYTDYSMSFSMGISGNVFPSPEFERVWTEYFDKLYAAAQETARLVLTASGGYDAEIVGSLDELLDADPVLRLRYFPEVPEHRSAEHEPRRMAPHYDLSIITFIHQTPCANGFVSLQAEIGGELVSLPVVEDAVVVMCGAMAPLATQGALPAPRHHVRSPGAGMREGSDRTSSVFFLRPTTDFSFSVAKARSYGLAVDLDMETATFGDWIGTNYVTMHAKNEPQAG
# EXPERIMENT NOTES: Substrate specificity of purified DAOC hydroxylase
# Type: biochemical
# Parameters: The highly purified native enzyme (92% purity) has a molecular weight of 35,000 dalton; endogenous in cells; host or cells: Streptomyces clavuligerus cells (native producer; NRRL 18491 is named as preferred strain), enzyme purified from cell-free extract
# EXPERIMENTAL PARAMETERS: compound as substrate
TEST READOUT: Sp. Activity (mU/mg)
// note: answer is a bare numeric in mU/mg

A selection of reference data follows.
[[record]]
compound = "CC1=C(C(=O)O)N2C(=O)[C@@H](NC(=O)CCC[C@@H](N)C(=O)O)[C@H]2SC1"
test_readout = "Sp. Activity (mU/mg)"
quantitative_readout = 159.2

[[record]]
compound = "CC1=C(C(=O)O)N2C(=O)[C@@H](NC(=O)CCC[C@@H](N)C(=O)O)[C@H]2CC1"
test_readout = "Sp. Activity (mU/mg)"
quantitative_readout = 3.0

[[record]]
compound = "C=C1CS[C@@H]2[C@H](NC(=O)CCC[C@@H](N)C(=O)O)C(=O)N2C1C(=O)O (stereo partly shown)"
test_readout = "Sp. Activity (mU/mg)"
quantitative_readout = 58.1


Proceed to the following item.
Which value of Sp. Activity (mU/mg) has been reported for CC1=C(C(=O)O)N2C(=O)[C@@H](NC(=O)CCC[C@H](N)C(=O)O)[C@H]2SC1 in the records?
1.3
